target: organic anion transporting polypeptide 1B1 (OATP1B1) (Homo sapiens (Human), UniProt Q9Y6L6)
Sequence (Q9Y6L6 whole entry): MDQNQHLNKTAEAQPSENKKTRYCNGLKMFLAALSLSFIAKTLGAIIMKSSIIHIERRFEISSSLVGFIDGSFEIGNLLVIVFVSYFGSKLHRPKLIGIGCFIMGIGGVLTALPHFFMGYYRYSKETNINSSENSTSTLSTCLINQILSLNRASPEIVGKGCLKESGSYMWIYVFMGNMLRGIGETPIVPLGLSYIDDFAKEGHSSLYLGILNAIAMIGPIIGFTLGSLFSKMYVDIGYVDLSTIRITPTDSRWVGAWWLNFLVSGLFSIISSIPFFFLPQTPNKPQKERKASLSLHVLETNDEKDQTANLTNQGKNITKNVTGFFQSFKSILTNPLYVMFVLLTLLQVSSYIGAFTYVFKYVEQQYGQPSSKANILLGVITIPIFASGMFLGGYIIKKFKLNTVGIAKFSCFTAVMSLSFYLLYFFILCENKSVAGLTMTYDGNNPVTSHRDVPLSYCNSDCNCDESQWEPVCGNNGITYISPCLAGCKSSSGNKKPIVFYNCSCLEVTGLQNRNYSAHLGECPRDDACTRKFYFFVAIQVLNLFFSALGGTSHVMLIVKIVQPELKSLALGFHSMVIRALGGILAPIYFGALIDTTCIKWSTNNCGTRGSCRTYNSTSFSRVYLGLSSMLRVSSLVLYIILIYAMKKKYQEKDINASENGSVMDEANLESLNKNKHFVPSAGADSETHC
experimental-details: OATP assay in CHO-OATP1B1 cells;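 further: inhibition of probe substrate uptake into the cells, ten minutes exposure, accumulated substrate read by fluorescence once cells were lysed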
Starred links: 1 amine or outer side, 2 acyl side, 3 side chain; linkers in the order of their positions; H or OH if unused. Non-standard residues stand in square brackets, D forms with d. Residues, ends and D or L forms follow the SMILES beside them. X54 = CCOC(=O)N1CCN(C[C@@H](C)[C@@H](C(=O)[*:2])N(C)[*:1])CC1; X29 = CC(=O)N1CCN(C[C@@H](C)[C@@H](C(=O)[*:2])N(C)[*:1])CC1; MeBmt = C/C=C/C[C@@H](C)[C@@H](O)[C@H](NC)C(=O)O; NMeL = CN[C@@H](CC(C)C)C(=O)O; NMeV = CN[C@H](C(=O)O)C(C)C; dNMeA = CN[C@H](C)C(=O)O; Abu = CC[C@H](N)C(=O)O
Measured pIC50, listed per entry.
Here pIC50 is given on a logarithmic scale as minus log10 of the concentration in mol/L.

C/C=C/C[C@@H](C)[C@@H](O)[C@H]1C(=O)N[C@@H](CC)C(=O)N(C)[C@H](C)C(=O)N(C)[C@@H]([C@H](C)CN2CCN(C(=O)OCC)CC2)C(=O)N[C@@H](C(C)C)C(=O)N(C)[C@@H](CC(C)C)C(=O)N[C@@H](C)C(=O)N[C@H](C)C(=O)N(C)[C@@H](CC(C)C)C(=O)N(C)[C@@H](CC(C)C)C(=O)N(C)[C@@H](C(C)C)C(=O)N1C [Compound 2.5.31] (cyclo(A[dA][NMeL][NMeL][NMeV][MeBmt][Abu][dNMeA][X54]V[NMeL]))
5.68

Entry C/C=C/C[C@@H](C)[C@@H](O)[C@H]1C(=O)N[C@@H](CC)C(=O)N(C)[C@H](C)C(=O)N(C)[C@@H]([C@H](C)CN2CCN(C(C)=O)CC2)C(=O)N[C@@H](C(C)C)C(=O)N(C)[C@@H](CC(C)C)C(=O)N[C@@H](C)C(=O)N[C@H](C)C(=O)N(C)[C@@H](CC(C)C)C(=O)N(C)[C@@H](CC(C)C)C(=O)N(C)[C@@H](C(C)C)C(=O)N1C [Compound 2.5.23] (cyclo(A[dA][NMeL][NMeL][NMeV][MeBmt][Abu][dNMeA][X29]V[NMeL])) ; pIC50 = 5.64

---

Measured CypB Kd, listed per entry.
target: cyclophilin B (CypB) (Homo sapiens (Human), UniProt P23284)
Sequence (P23284 34-216): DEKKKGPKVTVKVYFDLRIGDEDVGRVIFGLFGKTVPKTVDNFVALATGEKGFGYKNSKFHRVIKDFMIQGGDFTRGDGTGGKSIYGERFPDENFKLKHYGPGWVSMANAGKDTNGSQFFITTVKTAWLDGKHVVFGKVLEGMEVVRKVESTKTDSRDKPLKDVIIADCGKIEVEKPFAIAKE
experimental-details: Inhibitor binding to cyclophilin proteins by SPR, CypB
Design: unit not given here
condition-parameters: 1:1 binding model
Starred links: 1 amine or outer side, 2 acyl side, 3 side chain; linkers in the order of their positions; H or OH if unused. Non-standard residues stand in square brackets, D forms with d. Residues, ends and D or L forms follow the SMILES beside them. NMeAbu(3S-Me,4-OC2H4Mor) = CN[C@H](C(=O)O)[C@H](C)COCCN1CCOCC1; X14 = C[C@H](CN1CCN(C)CC1)[C@@H](C(=O)[*:2])N(C)[*:1]; MeBmt = C/C=C/C[C@@H](C)[C@@H](O)[C@H](NC)C(=O)O; NMeL = CN[C@@H](CC(C)C)C(=O)O; NMeV = CN[C@H](C(=O)O)C(C)C; dNMeA = CN[C@H](C)C(=O)O; Abu = CC[C@H](N)C(=O)O
Would you mind answering with just the numeric figure?

C/C=C/C[C@@H](C)[C@@H](O)[C@H]1C(=O)N[C@@H](CC)C(=O)N(C)[C@H](C)C(=O)N(C)[C@@H]([C@H](C)CN2CCN(C)CC2)C(=O)N[C@@H](C(C)C)C(=O)N(C)[C@@H](CC(C)C)C(=O)N[C@@H](C)C(=O)N[C@H](C)C(=O)N(C)[C@@H](CC(C)C)C(=O)N(C)[C@@H](CC(C)C)C(=O)N(C)[C@@H](C(C)C)C(=O)N1C [Compound 2.5.29] (cyclo(A[dA][NMeL][NMeL][NMeV][MeBmt][Abu][dNMeA][X14]V[NMeL]))
0.7

Now turn to the next molecule.
Entry C/C=C/C[C@@H](C)[C@@H](O)[C@H]1C(=O)N[C@@H](CC)C(=O)N(C)[C@H](C)C(=O)N(C)[C@@H]([C@H](C)COCCN2CCOCC2)C(=O)N[C@@H](C(C)C)C(=O)N(C)[C@@H](CC(C)C)C(=O)N[C@@H](C)C(=O)N[C@H](C)C(=O)N(C)[C@@H](CC(C)C)C(=O)N(C)[C@@H](CC(C)C)C(=O)N(C)[C@@H](C(C)C)C(=O)N1C [Compound 2.8.1] (cyclo(A[dA][NMeL][NMeL][NMeV][MeBmt][Abu][dNMeA][NMeAbu(3S-Me,4-OC2H4Mor)]V[NMeL])) ; CypB Kd = 0.7
